Values were extracted from the supplement of paper PMC10567573.

# Test: protein stability index of a GFP-peptide fusion (GPS, HEK-293T) (PSI 1-6); higher = more stable;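 also: 24-mer peptide tiles fused after GFP, lentivirally expressed, FACS-sorted into six equal bins by GFP/DsRed ratio, decoded by Illumina sequencing, PSI is the read-weighted mean bin number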
# Conditions used: treatment: DMSO; c terminus: a fixed tail appended
Entries and their protein stability index values follow.
// response body must contain only the number

Illustrative cases are given below, each with its answer.
Entry sequence	protein stability index
CVSRNSHLTSVTSESEQEFLYKTA [CD207]	3.34
VFDAEGYVKPQSCIDIVIRHVAPI [MOSPD3]	2.19
DGLDLDWEYPGSQGSPAVDKERFT [CHIT1]	4.94
KLQVRLATKTEPKKLEKYLQKLSA [ELOA2]	2.31
NGDITSFLLSVYAPGSSVEYQCQN [CFHR2]	2.38
LLSFKRGSALEEKENKILVKETGY [TNFSF13B]	3.45
PSAALTTMQLFSKQNPSRQEVTKL [FBXO28]	4.16
KSGAIMSALSDTEIQREIGISNAL [PPFIA4]	4.02
RRSSSKCIHDHHCGSQLSSTKGSR [NETO1]	3.74
LPQVAEEISGPLTSANKITLVSSG [FLOT1]	3.78

Item under review: PARDYSQYYRTIEELQNKILTATV [KRT17] . Reported protein stability index? 2.28

Item LDDSTVARELAITDSEHSDAEVSC [RETREG3] has what recorded protein stability index? 5.52

Sample CSNLTPNVPNVCRMYCSDLLNPNL [SPACA3] — what was its protein stability index? 2.62

---

# Test: protein stability index of a GFP-peptide fusion (GPS, HEK-293T) (PSI 1-6); higher = more stable
# Conditions used: treatment: DMSO; c terminus: a fixed tail appended
Value type: protein stability index
// no unit string in output, number only

Entry sequence	protein stability index
KAFREEMKIFREKIEDFREEMWTF [CCDC70]	2.35
DSEQNGQVTCSILAYLPFKLEKSI [PCDHGA10]	2.16
PNLSPHAPWNYHYHCPGSPDHQVP [TRAF3IP2]	3.29
SDQVKISEEALRADGFGDNPFYHC [SAT2]	4.16

Look up protein stability index for this sequence: AWKHGNIHLSAPCIYSEVMEALKL [PCMTD1] 2.28

Field request: protein stability index | item: SLSLRLPHQPVTAITRVSDRFSGE [SMTNL2] 3.8

Request the reported protein stability index associated with HELVWAKMKGFGFWPAKVMQKEDN [ZMYND11] 3.06

Need protein stability index of LYVDSLFFLRGRLDQLLRHVMNPL [PRAME] , thanks. 3.38

---

# Test: protein stability index of a GFP-peptide fusion (GPS, HEK-293T) (PSI 1-6); higher = more stable
# Conditions used: treatment: MLN4924 1 uM, 8 h; c terminus: a fixed tail appended
Each entry belongs to exactly one class, chosen by where its protein stability index falls: low value (below 3), medium value (3 to below 4), high value (4 or more)

Please review the entries below; each comes with its answer.
Entry sequence	Group
SALQSLLQHLIGLSNLTHVLYPVP [PRAME]	medium value
HIKFPIDYPYSPPTFRFLTKMWHP [UBE2R2]	low value
GKDSRWLPSLVLARLVFVPLLLLC [SLC29A1]	low value
KMNDSEGMDPERLKAFNMFVRLFV [NOL4L]	low value
EQDMERRKADFKAGKALVISGREV [ZC3H15]	high value
VHRDLKPENLLLASKSKGAAVKLA [CAMK2D]	medium value
GKEFGYFPRDAVQIEEVFISEEIQ [MIA2]	medium value
RYVFEAVIRWIAHDTEIRKVHMKD [GAN]	low value

Category of ALIDRPAPYFERSSSKRYTMSRSL [EPB41L3] : medium value

Textbook exercise: identify the category of the sequence given here, TGACGEAMAAAEGSSGPAGLTLGR [SEPHS2] , according to its measured value. medium value

Class (by measured protein stability index) for LEPLSLPESPGGTTTLEGSPSVPC [ZNF277] high value

Returns: class label. Input: RKISSLSFTLEEEEEGGEEEEEAA [FAM50A] high value

Which protein stability index band matches NITRIYNIGKSHQGLKLYAVEISD [CPXM2] ? low value

---

Entries and their protein stability index values follow.
# Test: protein stability index of a GFP-peptide fusion (GPS, HEK-293T) (PSI 1-6); higher = more stable
# Conditions used: treatment: DMSO; c terminus: a fixed tail appended
Reply with just the number.

These solved cases illustrate the format of a correct answer.
Entry sequence	protein stability index
WTPLHLACYFGHRQVVQDLLKAGA [OSBPL1A]	2.61
SALEGRADTTTGSAAGPPLSEDDK [EHMT1]	5.14

Which protein stability index is listed for TMKESLTTREIRRQEAIYEMSRGE [NET1] ? 4.46

Which value of protein stability index has been reported for RAALISRRHLQFWKSHLKKVQKPL [RHOBTB1] in the records? 2.22

Consider the sequence shown here: DITQSIEDDPLLDAQLLPHHSLQA [TMEM192] What is its recorded protein stability index? 4.15

---

# Test: protein stability index of a GFP-peptide fusion (GPS, HEK-293T) (PSI 1-6); higher = more stable
# Conditions used: treatment: MLN4924 1 uM, 8 h; c terminus: a fixed tail appended
# reported protein stability index; entries follow
The answer should be a number; do not append a unit.

Entry sequence	protein stability index
LESEDWEEDNWDPELMEHTEAESE [TEX19]	5.53
VEECQAALQNKDTYEPFCKVPVIT [KCTD10]	4.12
LEQQNQVLETKWELLQQLDLNNCK [KRT71]	4.4
VPAPQPPVTKPLFPSAGQAQAAVQ [ZNF207]	4.59
LEEEIERNKESPVFAPVYFPEELH [HMOX1]	5.09
ALKHYVESASSQSGCLRISIQKLS [NECAB1]	2.18
VSDITDLELLDKIERSKIVSTMRC [PPEF2]	3.52
NAVRSAMKSEEQKIKDARKGPLVP [KMT5A]	5.07
NLKTLDSKPGVYTSYKPYLNRDEE [DENND6A]	3.63
HGEELRVSARSREGRGGRPGSTRP [HAGHL]	4.93

protein stability index for LDPSSGAIHVLGPIDFEESRFYEI [PCDHGC5] ? 2.25

Given NQIMPKTGFLIIILAIIAKEGDCA [MAGEA6] , state its recorded protein stability index. 2.47

Requested field: protein stability index. Item: TSPALLQGTAEEDHVDLSLSCTLV [CDKN1A] 3.85

---

The following sequences are shown together with reported protein stability index values.
# Test: protein stability index of a GFP-peptide fusion (GPS, HEK-293T) (PSI 1-6); higher = more stable
# Conditions used: treatment: MLN4924 1 uM, 8 h; c terminus: native
Just the number, please, no unit after it.

Entry sequence	protein stability index
RLKTRSWAGERSRRELCSRLQDQ [CDC25B]	4.13
LFCAPGSWEWNELDHIMEIILGS [SERTAD3]	2.45

Note: attention shifts to another entry.
// returns reported protein stability index for input ELPPSLRAPPPGGWPLQPRVQWG [ZMAT5] 2.82

---

# Test: protein stability index of a GFP-peptide fusion (GPS, HEK-293T) (PSI 1-6); higher = more stable
# Conditions used: treatment: MLN4924 1 uM, 8 h; c terminus: a fixed tail appended
Please mark Criterion met if the recorded protein stability index is equal to or greater than 4, and Criterion not met if it falls below.

Entry sequence	Group
EAAEAETAKDNGEAEDQEEKEDAE [SRPK2]	Criterion met
SFGGEWSAPDTMKRYSMYLTPKGG [TRIM29]	Criterion not met
TLLAVGCNDGRIVIWDFLTRGIAK [RBBP5]	Criterion not met
PCKTRDDEPVCGRPLGIRAGPNGT [APMAP]	Criterion met
LLWAKFTNSDTPTSFNHMDSDKLS [TOR1AIP2]	Criterion not met

Say whether HVKETQPPETVQNWIELLSGETWN [GOLPH3] shows protein stability index of 4 or more. Criterion not met

Entry CAIQASLNQGSVFQEYDTDCEVFR [ZNF449] : is its protein stability index no less than 4? Criterion not met

Has SKIDHYVLEYRRTNFEGPPRLKED [FSD1] a recorded protein stability index greater than or equal to 4? Criterion not met

Could you verify whether the entry YESSADIAGDEGTQIPADEDTQTD [TAF7L] shows protein stability index of no less than 4? Criterion met

Evaluate IQEQKVVLEENGEKNQVQLGKLEA [SASS6] : protein stability index at minimum 4? Criterion met

Reported protein stability index reaches at least 4 for LAEMKDDSDSEKQQQIHHIKNLYA [VPS39] ? Criterion met

// inclusive: protein stability index at least 4? input: QHNLCRKCASDIFQASNPYLPTRG [TRIM55] Criterion not met

protein stability index >= 4 for RVMKVEDREGPSSSKLVTKKAPQP [HDAC6] ? Criterion met
